# protocol_summary: High throughput screening of water-soluble solid excipients for glucagon dissolution
# Format: physicochemical
# measurement_setup: solubilized glucagon after 30-minute incubation of lyophilized glucagon in pH 7.4 PBS containing 1 mg/mL excipient, 37° C.
Bucketed by reported Glucagon concentration Avg., buckets being low range (below 0.2 mg/mL), mid range (0.2 mg/mL to below 0.4 mg/mL), high range (0.4 mg/mL or more)

Request: Each compound maps to one class by Glucagon concentration Avg.. Which class for CC(O)COC[C@H]1O[C@@H]2O[C@H]3[C@H](O)[C@@H](O)[C@@H](O[C@H]4[C@H](O)[C@@H](O)[C@@H](O[C@H]5[C@H](O)[C@@H](O)[C@@H](O[C@H]6[C@H](O)[C@@H](O)[C@@H](O[C@H]7[C@H](O)[C@@H](O)[C@@H](O[C@H]8[C@H](O)[C@@H](O)[C@@H](O[C@H]1[C@H](O)[C@H]2O)O[C@@H]8COCC(C)O)O[C@@H]7COCC(C)O)O[C@@H]6COCC(C)O)O[C@@H]5COCC(C)O)O[C@@H]4COCC(C)O)O[C@@H]3COCC(C)O (stereo partly shown) [Hydroxypropyl Betadex] ?
Result: mid range

Request: Which band does NC(=O)CN(CC(=O)O)CC(=O)O fall in?
Result: low range

Request: Band of O=C(O)[C@H](O)[C@@H](O)[C@H](O[C@@H]1O[C@H](CO)[C@H](O)[C@H](O)[C@H]1O)[C@H](O)CO ?
Result: mid range

Request: Hello team, could you let me know which band the following compound falls into: O=C([O-])[C@H](O)[C@@H](O)[C@H](O)[C@H](O)CO.[Na+] [Sodium Gluconate]
Result: low range

Request: Could you tell me which band N[C@@H](Cc1ccccc1)C(=O)O belongs to?
Result: mid range

Request: Band for the recorded Glucagon concentration Avg. of OC[C@H]1O[C@@H]2O[C@H]3[C@H](O)[C@@H](O)[C@@H](O[C@H]4[C@H](O)[C@@H](O)[C@@H](O[C@H]5[C@H](O)[C@@H](O)[C@@H](O[C@H]6[C@H](O)[C@@H](O)[C@@H](O[C@H]7[C@H](O)[C@@H](O)[C@@H](O[C@H]1[C@H](O)[C@H]2O)O[C@@H]7CO)O[C@@H]6CO)O[C@@H]5CO)O[C@@H]4CO)O[C@@H]3CO ?
Result: low range

Request: // return the class label for O=C[C@H](O)[C@@H](O)[C@H](O)[C@H](O)CO
Result: mid range
